These measurements were taken from ChEMBL document CHEMBL4385592.

# measured_on: Voltage-gated L-type calcium channel (Homo sapiens, UniProt Q13936+Q13698+Q01668+O60840)
# assay_info: Inhibition of voltage-dependent L-type calcium channel in human SH-SY5Y cells assessed as protection against glutamate-induced excitotoxicity by measuring recovery of cell viability at 20 uM measured after 24 hrs by alamar blue-based fluorescence method relative to control
Response key: y means Activity >= 80%; n means Activity < 80%.

>>> class_assignment("CCOC(=O)C1=C(C)NC(C)=C(C(=O)OCC)C1c1c(-c2cc(OC)cc(OC)c2)nc2sc(Br)cn12")
"n"
>>> class_assignment("COC(=O)C1=C(C)NC(C)=C(C(=O)OC)C1c1c(-c2ccccc2)nc2scc(C)n12")
"y"
>>> class_assignment("COC(=O)C1=C(C)NC(C)=C(C(=O)OC)C1c1c(-c2cc(OC)ccc2OC)nc2sccn12")
"y"
>>> class_assignment("COC(=O)C1=C(C)NC(C)=C(C(=O)OC)C1c1c(-c2c(OC)ccc(OC)c2[N+](=O)[O-])nc2sc(Cl)cn12")
"n"
>>> class_assignment("COC(=O)C1=C(C)NC(C)=C(C(=O)OC)C1c1c(-c2ccccc2OC)nc2sccn12")
"n"

Does Activity meet or surpass 80% for CCOC(=O)C1=C(C)NC(C)=C(C(=O)OCC)C1c1c(-c2c(F)cccc2F)nc2sccn12 ?
n

Now consider COC(=O)C1=C(C)NC(C)=C(C(=O)OC)C1c1c(C(F)(F)F)nc2sccn12 .
y

Now consider CCOC(=O)C1=C(C)NC(C)=C(C(=O)OCC)C1c1c(-c2ccc(F)c(F)c2)nc2sccn12 .
n

====

Kindly supply the reported Activity values for the records listed here.
# measured_on: Voltage-gated L-type calcium channel (Homo sapiens, UniProt Q13936+Q13698+Q01668+O60840)
# assay_info: Inhibition of voltage-dependent L-type calcium channel in human SH-SY5Y cells assessed as protection against glutamate-induced excitotoxicity by measuring recovery of cell viability at 20 uM measured after 24 hrs by alamar blue-based fluorescence method relative to control
One number for each entry, in %.

Would you please look over these solved cases?
>>> result("CCOC(=O)C1=C(C)NC(C)=C(C(=O)OCC)C1c1c(-c2ccc([N+](=O)[O-])cc2)nc2sc(F)cn12")
51.1
>>> result("COC(=O)C1=C(C)NC(C)=C(C(=O)OC)C1c1c(-c2ccc(OC(F)(F)F)cc2)nc2sccn12")
37.7
>>> result("COC(=O)C1=C(C)NC(C)=C(C(=O)OC)C1c1ccccc1[N+](=O)[O-]")
101.6
>>> result("COC(=O)C1=C(C)NC(C)=C(C(=O)OC)C1c1c(-c2cc(OC)c([N+](=O)[O-])cc2OC)nc2sccn12")
46.3
>>> result("CCOC(=O)C1=C(C)NC(C)=C(C(=O)OCC)C1c1c(-c2cc(OC)ccc2OC)nc2sccn12")
67.4
>>> result("C=CCOC(=O)C1=C(C)NC(C)=C(C(=O)OCC=C)C1c1c(-c2cc(OC)c([N+](=O)[O-])cc2OC)nc2sccn12")
52.3

Let's switch to this compound now.
Which Activity is reported for this compound? CCOC(=O)C1=C(C)NC(C)=C(C(=O)OCC)C1c1c(-c2ccc(OC(F)(F)F)cc2)nc2sc(Br)cn12
49.8
